What protein stability index was measured for each of the following?
B1: TBX5 (parent)
chain: FHEVGTEMIITKAGRRMFPSYKVK

Variants of: B1
Test: protein stability index of a GFP-peptide fusion (GPS, HEK-293T) (PSI 1-6); higher = more stable;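 note: lentivirally expressed fusions sorted by FACS into six bins by GFP to DsRed ratio, PSI derived from sequencing read proportions per bin multiplied by bin number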
Details: c terminus: a fixed tail appended
Reply: number alone, nothing else.

Entry under review: `V4S` . Reported protein stability index?
1.95

Entry under review: `V23I` . Reported protein stability index?
1.97

Entry under review: `V4C` . Reported protein stability index?
2

Entry under review: `H2A` . Reported protein stability index?
2.04
